# assayed-target: HSV-2 thymidine kinase (Human herpesvirus 2)
# Sequence (P04407 whole entry): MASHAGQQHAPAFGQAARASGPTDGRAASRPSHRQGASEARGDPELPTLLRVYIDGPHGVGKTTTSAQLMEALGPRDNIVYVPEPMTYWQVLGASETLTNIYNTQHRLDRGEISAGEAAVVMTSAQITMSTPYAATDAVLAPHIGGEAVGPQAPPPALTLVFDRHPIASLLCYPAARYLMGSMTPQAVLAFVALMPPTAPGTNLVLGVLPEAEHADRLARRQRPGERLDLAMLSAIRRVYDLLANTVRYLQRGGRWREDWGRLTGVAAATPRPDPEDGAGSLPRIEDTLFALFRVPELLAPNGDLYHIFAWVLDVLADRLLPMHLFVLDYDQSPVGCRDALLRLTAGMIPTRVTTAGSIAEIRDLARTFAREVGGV
# protocol-description: inhibition of HSV-2 thymidine kinase
# Format: biochemical
# measurement-conditions: 3H-thymidine phosphorylation, 37° C., 30 minutes, pH 8; read-out: IC50 against HSV-2 thymidine kinase
Where a name gives a salt, the structure may show the parent alone.
result-type: IC50

>>> result("CCc1cn([C@@H]2O[C@H](CNC(=O)[C@H](C)Oc3cc(OC)c(Cl)cc3Cl)[C@@H](OC(=O)[C@@H](N)C(C)C)[C@@H]2F)c(=O)[nH]c1=O [Example 1, hydrochloride]")
"1.1 nM"

# credit: patent US5705492A
